Below: a set of entries, each annotated with reported inhibition at 50 µg/mL.
System: F. graminearum
Assay: microbe, parasite or virus in culture
Format: cell-based
Settings: Fusarium graminearum, read-out: The Inhibition Rate (%) F. graminearum
Answer with a number only, understood to be in %.

COc1ccc(-c2noc(/C=C/c3ccccc3)n2)cc1OC [Compound 5e]    28.7

# input for lookup
# input Entry COc1ccc(-c2nc(-c3cc(OC)c(OC)c(OC)c3)no2)cc1OC [Compound 4t] needs its inhibition at 50 µg/mL filled in; supply it.
# output 28.3

###

System: F. graminearum
Experiment: microbe, parasite or virus in culture
Type: cell-based
Conditions: Fusarium graminearum, read-out: The Inhibition Rate (%) F. graminearum
Measure Name: inhibition at 50 µg/mL

FC(F)(F)c1ccc(-c2nc(-c3ccccc3)no2)cc1    29%
COc1ccc(-c2noc(-c3cc(O)cc(O)c3)n2)cc1OC    < 10%
Clc1ccc(-c2nc(-c3ccccc3)no2)cc1    19.1%
CC(C)(C)c1ccc(-c2nc(-c3ccccc3)no2)cc1    33.5%

Now consider a different compound.
# input Item "COc1ccc(-c2noc(-c3ccc(O)c(O)c3)n2)cc1OC" : provide inhibition at 50 µg/mL
# output 43.5%

###

Tested on: F. graminearum
Experiment: microbe, parasite or virus in culture
Format: cell-based
Settings: Fusarium graminearum, read-out: EC50 (μg/mL) F. graminearum
This listing pairs compounds with measured EC50.
Put down the number, then write its unit next to it.

# input Answer with the recorded EC50 for the compound listed here: COC(=O)Nc1nc2ccccc2[nH]1 [carbendazim, reference compound]
# output 19.6 µg/mL

# input Please report the measured EC50 for "Oc1cc(-c2nc(-c3ccccc3)no2)cc(O)c1O"
# output 80.5 µg/mL

# input Return reported EC50. Input compound: "COc1ccc(-c2noc(-c3ccc(O)c(O)c3)n2)cc1OC"
# output 149 µg/mL

# input Input "Oc1ccc(-c2nc(-c3ccccc3)no2)cc1O" , output reported EC50.
# output 30 µg/mL

###

Tested on: F. graminearum
Assay: microbe, parasite or virus in culture
Assay type: cell-based
Conditions: Fusarium graminearum, read-out: The Inhibition Rate (%) F. graminearum
Below, each of the compounds is paired with its reported inhibition at 50 µg/mL value.
Numbers only here, please. The scale is %.

Oc1cccc(-c2nc(-c3ccccc3)no2)c1    40.2
COc1ccc(-c2noc(-c3ccc(C(C)(C)C)cc3)n2)cc1    27.6
COc1ccc(-c2noc(-c3cccc(O)c3)n2)cc1OC    55.1
Oc1cc(O)cc(-c2nc(-c3ccccc3)no2)c1    30.1

Now for a further compound.
# input Provide measured inhibition at 50 µg/mL value, entry: "Oc1ccc(-c2nc(-c3ccccc3)no2)cc1O"
# output 100

###

System: R. solani
Assay: microbe, parasite or virus in culture
Format: cell-based
Conditions: Rhizoctonia solani, read-out: The Inhibition Rate (%) R. solani
Measure Name: inhibition at 50 µg/mL (%)
# number only, unit % dropped from output

// worked examples, inhibition at 50 µg/mL included
Oc1cc(-c2nc(-c3ccccc3)no2)cc(O)c1O    39.9
Oc1cccc(-c2nc(-c3ccccc3)no2)c1    18.6
Oc1ccc(-c2nc(-c3ccccc3)no2)cc1O    80.9
COc1cc(/C=C/c2nc(-c3ccccc3)no2)cc(OC)c1OC    21.2
COc1ccc(-c2noc(-c3ccc(Cl)cc3)n2)cc1OC    11.7
Oc1cc(O)cc(-c2nc(-c3ccccc3)no2)c1    16.6

# input State, in one line, measured inhibition at 50 µg/mL of C(=C\c1nc(-c2ccccc2)no1)/c1ccccc1 [Compound 5a, (E)-3-Phenyl-5-styryl-1,2,4-oxadiazole]
# output 14.5

# input Retrieve inhibition at 50 µg/mL measured for "COc1ccc(-c2noc(-c3ccc(O)c(O)c3)n2)cc1OC" and print it.
# output 47.8

# input State its inhibition at 50 µg/mL: "CC(C)(C)c1ccc(-c2nc(-c3ccccc3)no2)cc1"
# output 10.7
